// provenance: PubChem BioAssay AID1963846

Test system: 454973-116-R2-J3-PDC complex spheroid viability;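 also: spheroids exposed to drugs for seven days before measurement; percent viability relative to DMSO vehicle control wells taken as 100%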
Experiment: Anticancer human tumor 454973-116-R2-J3-PDC patient-derived pancreatic carcinoma cell line growth inhibition [POLQ]
Conditions: second compound 3.16 µM; first compound 0.316 µM; stronger effect = lower value
measured.attribute: viability, T/C

molecule	observed.value
COc1cccc(OCCCN)c1-c1cc(Nc2cnc(C#N)cn2)n[nH]1 + COC1C(OC(N)=O)C(O)C(Oc2ccc3c(O)c(NC(=O)c4ccc(O)c(CC=C(C)C)c4)c(=O)oc3c2C)OC1(C)C	6.78%
C=CCn1c(=O)c2cnc(Nc3ccc(N4CCN(C)CC4)cc3)nc2n1-c1cccc(C(C)(C)O)n1 + COC1C(OC(N)=O)C(O)C(Oc2ccc3c(O)c(NC(=O)c4ccc(O)c(CC=C(C)C)c4)c(=O)oc3c2C)OC1(C)C	86.8%
CNCc1ccc(-c2[nH]c3cc(F)cc4c3c2CCNC4=O)cc1 + Cc1cccc(N(C)C(=O)C2C(O)CCN2c2nc(C)cc(C(F)(F)F)c2C#N)c1	105%
O=C(Nc1ccc(O)c(NS(=O)(=O)c2ccc(F)cc2)c1)c1ccc(-c2ccccc2)cc1 + COC1C(OC(N)=O)C(O)C(Oc2ccc3c(O)c(NC(=O)c4ccc(O)c(CC=C(C)C)c4)c(=O)oc3c2C)OC1(C)C	107%
